Test system: Sam68 (KHDRBS1)
Assay: Sam68 small-molecule binders, primary screen, biochemical, small-molecule microarray, 635 nm fluorescence (AID 1125);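 also: score merges 667 nm channel intensity with signal to noise over triplicate slides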
Settings: small-molecule microarray binding, higher = more signal
Rule: label 1 for composite z-score not less than 1, label 0 for anything less.

See these solved cases before continuing.
{"columns": ["compound", "tested_on", "category"],
 "data": [
  ["COc1ccc(C(O)C2C=CC3C(=O)N(c4ccccc4)C(=O)C3N2Nc2ccccc2F)cc1 (stereo unspecified)", "Sam68 (KHDRBS1)", "label 1"],
  ["C=C[C@@H](OC)[C@H](OC(=O)Nc1ccc(OC)cc1)c1ccc(OC)c(O)c1", "Sam68 (KHDRBS1)", "label 0"],
  ["COCCCNC(=O)[C@@]1(c2ccc([N+](=O)[O-])cc2)CC(=O)N(CC23CC4CC(CC(C4)C2)C3)[C@@H]1c1ccc(CO)cc1I", "Sam68 (KHDRBS1)", "label 0"],
  ["[N-]=[N+]=NCc1ccccc1[C@@H]1OC(c2ccc(OCCCO)cc2)=N[C@]1(Cc1ccccc1)C(=O)NCCN1CCOCC1", "Sam68 (KHDRBS1)", "label 1"],
  ["CCOC(=O)C1=C[C@@H](C(C)(C)C)N(S(=O)(=O)c2ccc(C)cc2)[C@H]1c1cccc(Cl)c1", "Sam68 (KHDRBS1)", "label 1"],
  ["C=CCC(OC(C)=O)[C@@H]1[C@@H](N(Cc2ccc(-c3ccccc3)cc2)C(=O)c2ccc(C)cc2)c2cc(OCCCO)ccc2N1C(=O)Cc1ccc2ccccc2c1 (stereo partly specified)", "Sam68 (KHDRBS1)", "label 0"]
]}

Input line: Entry [N-]=[N+]=Nc1ccccc1C[C@@]1(C(=O)O)N=C(c2ccc(OCCCO)cc2)O[C@@H]1c1ccccc1N=[N+]=[N-] : is its composite z-score no less than 1?
Output line: label 1

Input line: Please indicate if the recorded composite z-score for O=C1N[C@@H](Cc2ccccc2)C(=O)N2[C@@H]1C[C@@H](C(=O)O)[C@H]2c1ccc(O)cc1 meets or exceeds 1.
Output line: label 0
